- assayed-target: Recombinant bovine HSC70 (Stressgen) (bovine) (UniProt P19120)
- Sequence (P19120 whole entry): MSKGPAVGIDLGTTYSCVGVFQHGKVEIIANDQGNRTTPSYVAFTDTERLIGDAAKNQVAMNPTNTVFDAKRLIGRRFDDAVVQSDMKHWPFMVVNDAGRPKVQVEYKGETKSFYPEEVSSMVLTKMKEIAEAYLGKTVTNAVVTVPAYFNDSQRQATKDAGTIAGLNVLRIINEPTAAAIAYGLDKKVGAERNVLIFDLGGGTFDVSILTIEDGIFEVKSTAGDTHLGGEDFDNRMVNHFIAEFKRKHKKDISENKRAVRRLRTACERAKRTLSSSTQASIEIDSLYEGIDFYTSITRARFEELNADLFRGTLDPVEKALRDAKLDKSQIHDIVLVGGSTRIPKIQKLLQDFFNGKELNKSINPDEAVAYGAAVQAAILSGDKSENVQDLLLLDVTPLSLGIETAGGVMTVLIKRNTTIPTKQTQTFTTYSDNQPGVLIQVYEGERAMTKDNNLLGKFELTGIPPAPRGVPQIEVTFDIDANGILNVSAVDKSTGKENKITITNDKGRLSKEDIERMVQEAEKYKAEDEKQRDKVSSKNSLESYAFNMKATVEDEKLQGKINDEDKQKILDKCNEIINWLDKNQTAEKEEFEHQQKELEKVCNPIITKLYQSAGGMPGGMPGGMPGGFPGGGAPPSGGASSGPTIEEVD
- assay-protocol: SPR (BIAcore 3000), bovine HSC70 immobilized, peptide at 25 µM, 1:1 Langmuir fit
Where no end group is shown, it is not given here. [ ]: non-standard residue; d: D form. Met(O) = CS(=O)CC[C@H](N)C(=O)O; pS = N[C@@H](COP(=O)(O)O)C(=O)O
readout-name: Kd (µM)

RIHMVYSKR[pS]GKPRGYAFIEY [P140 peptide (peptide consisting of SEQ ID NO: 1, in which serine at position 10 is phosphorylated)]: 6.94
RIH[Met(O)]VYSKR[pS]GKPRGYAFIEY: 1.91
